test system: MCF7 (Breast Carcinoma); test: Bliss excess, mean over the matrix (fraction); higher = more synergy
Assignment: determine reported Bliss excess for the given molecules.
One number for each entry.

| Molecule | Attribute measured | Numeric readout |
| --- | --- | --- |
| Cc1c2c(nn1C)CSCc1cc(n(C)n1)CSc1cc(c3ccccc3c1)OCCCc1c(C(=O)O)n(C)c3c-2c(Cl)ccc13 [AZD5991] + C[C@@H]1COCCN1C2=NC(=NC(=C2)C3(CC3)[S@](=N)(=O)C)C4=C5C=CNC5=NC=C4 [AZD6738] (first compound max 1 µM, 7x7, partner max 10 µM) | Bliss excess | 0.0286 |
| COc1cccc(OCCCN)c1-c1cc(Nc2cnc(C#N)cn2)n[nH]1 [Prexasertib] + Cc1cc2ncnn2cc1Nc1ncc2c(n1)n(C1CCOCC1)c(=O)n2C [AZD7648] (first compound max 1 µM, 7x7, partner max 10 µM) | Bliss excess | 0.0688 |
| CC(=O)c1c(C)c2cnc(Nc3ccc(N4CCNCC4)cn3)nc2n(C2CCCC2)c1=O [Palbociclib] + Cn1cnc2c(F)c(Nc3ccc(Br)cc3Cl)c(C(=O)NOCCO)cc21 [Selumetinib] (first compound max 10 µM, 7x7, partner max 10 µM) | Bliss excess | -0.0013 |

Okay, now this molecule:
Requested read-out: Bliss excess. Entry: COc1nnc2ccc(N3CCC(c4ccc(OCCN5CCN(C)C(=O)[C@H]5C)cc4)CC3)nn12 [AZD5153] + Cn1cnc2c(F)c(Nc3ccc(Br)cc3Cl)c(C(=O)NOCCO)cc21 [Selumetinib] (first compound max 1 µM, 7x7, partner max 10 µM) -0.0307

====

system: H4 (Low Grade Glioma); assay: Bliss excess, mean over the matrix (fraction); higher = more synergy
Attribute measured: Bliss excess

Solved cases below.
| Molecule | Bliss excess |
| --- | --- |
| CS(=O)(=O)CCNCc1ccc(-c2ccc3ncnc(Nc4ccc(OCc5cccc(F)c5)c(Cl)c4)c3c2)o1 [Lapatinib] + Cn1cnc2c(F)c(Nc3ccc(Br)cc3Cl)c(C(=O)NOCCO)cc21 [Selumetinib] (first compound max 10 µM, 7x7, partner max 10 µM) | -0.0159 |
| CCc1c2c(nc3ccc(O)cc13)-c1cc3c(c(=O)n1C2)COC(=O)[C@]3(O)CC [SN-38] + O=C(c1cc(Cc2n[nH]c(=O)c3ccccc23)ccc1F)N1CCN(C(=O)C2CC2)CC1 [Olaparib] (first compound max 0.3 µM, 7x7, partner max 10 µM) | 0.0958 |
| COc1nnc2ccc(N3CCC(c4ccc(OCCN5CCN(C)C(=O)[C@H]5C)cc4)CC3)nn12 [AZD5153] + CC1(C)CCC(CN2CCN(c3ccc(C(=O)NS(=O)(=O)c4ccc(NCC5CCOCC5)c([N+](=O)[O-])c4)c(Oc4cnc5[nH]ccc5c4)c3)CC2)=C(c2ccc(Cl)cc2)C1 [Venetoclax] (first compound max 1 µM, 7x7, partner max 1 µM) | 0.033 |

Okay, now this molecule:
Requested read-out: Bliss excess. Entry: COc1cccc(OCCCN)c1-c1cc(Nc2cnc(C#N)cn2)n[nH]1 [Prexasertib] + CN(C)CCCOc1ccc(-c2ccc3ncc4c(c3c2)n(C2CCOCC2)c(=O)n4C)cn1 [AZD0156] (first compound max 1 µM, 7x7, partner max 1 µM) -0.0309

====

system: CAL-39 (Other Solid Carcinomas); assay: Bliss excess, mean over the matrix (fraction); higher = more synergy
Attribute measured: Bliss excess
Give bare numbers.

| Compound | Bliss excess |
| --- | --- |
| Cn1cnc2c(F)c(Nc3ccc(Br)cc3Cl)c(C(=O)NOCCO)cc21 [Selumetinib] + CCN(CCO)CCCOc1ccc2c(Nc3cc(CC(=O)Nc4cccc(F)c4)[nH]n3)ncnc2c1 [AZD2811] (first compound max 10 µM, 7x7, partner max 1 µM) | -0.0688 |
| CN(C)CCCOc1ccc(-c2ccc3ncc4c(c3c2)n(C2CCOCC2)c(=O)n4C)cn1 [AZD0156] + C[C@@H]1COCCN1C2=NC(=NC(=C2)C3(CC3)[S@](=N)(=O)C)C4=C5C=CNC5=NC=C4 [AZD6738] (first compound max 1 µM, 7x7, partner max 10 µM) | 0.0017 |
| N#Cc1cnc(Nc2cc(NC[C@H]3CNCCO3)c(C(F)(F)F)cn2)cn1 [SRA737] + CCc1c2c(nc3ccc(O)cc13)-c1cc3c(c(=O)n1C2)COC(=O)[C@]3(O)CC [SN-38] (first compound max 10 µM, 7x7, partner max 0.3 µM) | -0.0157 |
| NC1(C(=O)N[C@@H](CCO)c2ccc(Cl)cc2)CCN(c2ncnc3[nH]ccc23)CC1 [Capivasertib] + Cn1cnc2c(F)c(Nc3ccc(Br)cc3Cl)c(C(=O)NOCCO)cc21 [Selumetinib] (first compound max 10 µM, 7x7, partner max 10 µM) | -0.019 |
| C=CCn1c(=O)c2cnc(Nc3ccc(N4CCN(C)CC4)cc3)nc2n1-c1cccc(C(C)(C)O)n1 [AZD1775] + Nc1ccn([C@@H]2O[C@H](CO)[C@@H](O)C2(F)F)c(=O)n1 [Gemcitabine] (first compound max 1 µM, partner max 0.3 µM) | 0.0328 |
| C[C@@H](Oc1cc(-c2cnn(C3CCNCC3)c2)cnc1N)c1c(Cl)ccc(F)c1Cl [Crizotinib] + Cn1cnc2c(F)c(Nc3ccc(Br)cc3Cl)c(C(=O)NOCCO)cc21 [Selumetinib] (first compound max 10 µM, 7x7, partner max 10 µM) | 0.0132 |

# per-item lookup of Bliss excess; items listed below
1. C=CCn1c(=O)c2cnc(Nc3ccc(N4CCN(C)CC4)cc3)nc2n1-c1cccc(C(C)(C)O)n1 [AZD1775] + CCc1c2c(nc3ccc(O)cc13)-c1cc3c(c(=O)n1C2)COC(=O)[C@]3(O)CC [SN-38] (first compound max 1 µM, partner max 0.3 µM)
2. Cc1c2c(nn1C)CSCc1cc(n(C)n1)CSc1cc(c3ccccc3c1)OCCCc1c(C(=O)O)n(C)c3c-2c(Cl)ccc13 [AZD5991] + CCN(CCO)CCCOc1ccc2c(Nc3cc(CC(=O)Nc4cccc(F)c4)[nH]n3)ncnc2c1 [AZD2811] (first compound max 1 µM, 7x7, partner max 1 µM)

1. -0.0225
2. -0.0192

====

Assignment: determine reported combination Emax for the given compounds.
system: SLVL (B-Cell Non-Hodgkin's Lymphoma); test: combination Emax (second highest fraction inhibited in the dose matrix, 72 h); higher = more inhibition; extreme values may be limits of the assay
Answers are plain numbers.

| Compound | combination Emax |
| --- | --- |
| NC1(C(=O)N[C@@H](CCO)c2ccc(Cl)cc2)CCN(c2ncnc3[nH]ccc23)CC1 [Capivasertib] + C[C@@H]1COCCN1C2=NC(=NC(=C2)C3(CC3)[S@](=N)(=O)C)C4=C5C=CNC5=NC=C4 [AZD6738] (first compound max 10 µM, 7x7, partner max 10 µM) | 0.845 |
| Cc1c2c(nn1C)CSCc1cc(n(C)n1)CSc1cc(c3ccccc3c1)OCCCc1c(C(=O)O)n(C)c3c-2c(Cl)ccc13 [AZD5991] + C[C@@H]1COCCN1C2=NC(=NC(=C2)C3(CC3)[S@](=N)(=O)C)C4=C5C=CNC5=NC=C4 [AZD6738] (first compound max 1 µM, 7x7, partner max 10 µM) | 0.873 |
| CC1(C)CCC(CN2CCN(c3ccc(C(=O)NS(=O)(=O)c4ccc(NCC5CCOCC5)c([N+](=O)[O-])c4)c(Oc4cnc5[nH]ccc5c4)c3)CC2)=C(c2ccc(Cl)cc2)C1 [Venetoclax] + C[C@@H]1COCCN1C2=NC(=NC(=C2)C3(CC3)[S@](=N)(=O)C)C4=C5C=CNC5=NC=C4 [AZD6738] (first compound max 1 µM, 7x7, partner max 10 µM) | 0.939 |
| Cc1c2c(nn1C)CSCc1cc(n(C)n1)CSc1cc(c3ccccc3c1)OCCCc1c(C(=O)O)n(C)c3c-2c(Cl)ccc13 [AZD5991] + CC(=O)O[C@H]1C(=O)[C@@]2(C)[C@H]([C@H](OC(=O)c3ccccc3)[C@]3(O)C[C@H](OC(=O)[C@H](O)[C@@H](NC(=O)c4ccccc4)c4ccccc4)C(C)=C1C3(C)C)[C@]1(OC(C)=O)CO[C@@H]1C[C@@H]2O [Paclitaxel] (first compound max 1 µM, 7x7, partner max 3 µM) | 0.954 |
| COc1cccc(OCCCN)c1-c1cc(Nc2cnc(C#N)cn2)n[nH]1 [Prexasertib] + O=C(c1cc(Cc2n[nH]c(=O)c3ccccc23)ccc1F)N1CCN(C(=O)C2CC2)CC1 [Olaparib] (first compound max 1 µM, 7x7, partner max 10 µM) | 0.974 |

Requested read-out: combination Emax. Entry: COc1cccc(OCCCN)c1-c1cc(Nc2cnc(C#N)cn2)n[nH]1 [Prexasertib] + C=CCn1c(=O)c2cnc(Nc3ccc(N4CCN(C)CC4)cc3)nc2n1-c1cccc(C(C)(C)O)n1 [AZD1775] (first compound max 1 µM, partner max 1 µM) 0.951
